# System: Bacteroides thetaiotaomicron
# test.protocol: growth AUC relative to DMSO control (median of replicates) (fraction); higher = more growth (less inhibition), active = hit call of the paper
# assay.setup: 20 µM; 24 h
experimental.readout: growth AUC
Number only, please.

A selection of reference data follows.
INSERT INTO results (compound, quantitative_readout) VALUES
  ('Clc1ccc(C2(Cn3cncn3)OCCO2)c(Cl)c1', 0.916),
  ('Cc1cc(Cl)ccc1N=CN(C)C', 1.03),
  ('Nc1cc(Cl)cc(C(=O)O)c1Cl', 1),
  ('CCNc1nc(NC(C)C)nc(OC)n1', 1),
  ('OC(Cn1cncn1)(c1ccc(F)cc1)c1ccccc1F (centres undefined)', 0.98);

Give a short answer stating reported growth AUC for CON(C)C(=O)Nc1ccc(Cl)c(Cl)c1 .
1

Kindly indicate its recorded growth AUC. Item: O=C(O)CNCP(=O)(O)O
1.02

Please supply the value of reported growth AUC for the item CC(C)=CC1C(C(=O)OC(C#N)c2cccc(Oc3ccccc3)c2)C1(C)C (mixture of isomers)
1.01

Please give the documented growth AUC of Oc1cccc2cccnc12
0.984

Hello, please tell me recorded growth AUC for this one: CCCCC(CC)COC(=O)c1ccccc1C(=O)OCC(CC)CCCC (centres undefined)
0.993

* * *

# Tested on: Lactobacillus gasseri
# test.protocol: growth AUC relative to DMSO control (median of replicates) (fraction); higher = more growth (less inhibition), active = hit call of the paper
# assay.setup: 20 µM; 24 h
Please enter Condition met where growth AUC is greater than or equal to 1, and Condition not met where it is lower.

Solved entries:
INSERT INTO results (compound, label) VALUES
  ('c1nc[n]([Sn]([CH]2CCCCC2)([CH]2CCCCC2)[CH]2CCCCC2)n1', 'Condition met'),
  ('CC1(C)[C@H](C(=O)O[C@H](C#N)c2cccc(Oc3ccccc3)c2)[C@@H]1/C=C\C(=O)OC(C(F)(F)F)C(F)(F)F', 'Condition met'),
  ('O=c1ccc(=O)[nH][nH]1', 'Condition not met'),
  ('CC(C)[C@H](C(=O)O[C@H](C#N)c1cccc(Oc2ccccc2)c1)c1ccc(Cl)cc1', 'Condition not met'),
  ('N#Cc1nn(-c2c(Cl)cc(C(F)(F)F)cc2Cl)c(N)c1S(=O)C(F)(F)F (stereo unspecified)', 'Condition not met');

Determine whether measured growth AUC meets or exceeds 1 for Cc1[nH]c(=O)n(C(C)(C)C)c(=O)c1Cl
Condition not met

Is growth AUC at least 1? Consider CCOCn1c(-c2ccc(Cl)cc2)c(C#N)c(Br)c1C(F)(F)F
Condition not met

hey, is growth AUC for this one >= 1? COC(=O)C(C)(Cl)Cl
Condition met

* * *

# Test system: Coprococcus comes
# test.protocol: growth AUC relative to DMSO control (median of replicates) (fraction); higher = more growth (less inhibition), active = hit call of the paper;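 active = AUC reduced over 20% with Padj below 0.05 in at least 2 of 3 replicates; inactive = otherwise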
# assay.setup: 20 µM; 24 h
Hi there, use one of these labels in your reply, thanks! 1.0 for active, 0.0 for inactive

INSERT INTO assay_data (chemical_structure, label) VALUES
  ('O=C(O)c1cc(Cl)ccc1Cl', 0.0),
  ('[Cl][Sn]([c]1ccccc1)([c]1ccccc1)[c]1ccccc1', 1.0);

Proceed to the following item.
Call for entry Clc1ccccc1Cl :
0.0
